target: Metabotropic glutamate receptor 2 (Homo sapiens); assay: Antagonist activity at recombinant human mGlu2 receptor expressed in hamster AV12 cells co-expressing human EAAT1 assessed as reduction of DCG-4-inhibited forskolin-stimulated cAMP formation after 20 mins by HTRF assay; assay type: functional, cell-based
Sequence (Q14416 19-872 limits assumed): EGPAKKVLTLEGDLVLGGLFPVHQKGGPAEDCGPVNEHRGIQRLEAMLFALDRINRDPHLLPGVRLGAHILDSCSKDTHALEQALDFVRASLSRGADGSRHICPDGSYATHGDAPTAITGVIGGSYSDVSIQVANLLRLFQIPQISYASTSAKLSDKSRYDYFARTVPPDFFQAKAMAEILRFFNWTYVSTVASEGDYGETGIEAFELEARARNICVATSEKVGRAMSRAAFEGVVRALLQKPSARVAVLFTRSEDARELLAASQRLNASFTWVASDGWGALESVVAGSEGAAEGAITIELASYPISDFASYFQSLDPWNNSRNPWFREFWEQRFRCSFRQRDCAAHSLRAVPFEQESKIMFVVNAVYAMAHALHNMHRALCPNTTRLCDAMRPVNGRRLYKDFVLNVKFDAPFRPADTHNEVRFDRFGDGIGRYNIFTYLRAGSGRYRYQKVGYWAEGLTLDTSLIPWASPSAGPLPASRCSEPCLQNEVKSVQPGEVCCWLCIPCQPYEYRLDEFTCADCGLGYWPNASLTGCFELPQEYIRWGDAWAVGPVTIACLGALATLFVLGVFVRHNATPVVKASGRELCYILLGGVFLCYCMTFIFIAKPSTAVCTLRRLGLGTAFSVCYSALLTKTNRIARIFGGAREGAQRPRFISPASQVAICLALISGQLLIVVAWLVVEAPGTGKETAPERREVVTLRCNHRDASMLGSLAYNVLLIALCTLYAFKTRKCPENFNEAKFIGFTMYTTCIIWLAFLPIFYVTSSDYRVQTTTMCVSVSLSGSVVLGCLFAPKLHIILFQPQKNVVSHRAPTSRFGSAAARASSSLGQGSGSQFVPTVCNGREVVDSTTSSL
Below: a set of entries, each annotated with reported Imax.

Would you please look over these solved cases?
# Imax (compound: CC(=O)N[C@H]1[C@H]2[C@H](C(=O)O)[C@H]2[C@](N)(C(=O)O)[C@@H]1OCc1ccc(Cl)c(Cl)c1 ) is > 94%

For record N[C@]1(C(=O)O)[C@@H]2[C@@H](C(=O)O)[C@@H]2[C@@H](O)[C@H]1OCc1ccc(Cl)c(Cl)c1 the listed Imax is > 94%

Lab note: N[C@]1(C(=O)O)[C@@H]2[C@@H](C(=O)O)[C@@H]2[C@H](O)[C@H]1OCc1ccc(Cl)c(Cl)c1 gave Imax of > 94%

Memo: N[C@H]1[C@H]2[C@H](C(=O)O)[C@H]2[C@](N)(C(=O)O)[C@@H]1OCc1ccc(Cl)c(Cl)c1 , reported Imax: > 94%

Value of measured Imax for the entry Cn1ncnc1S[C@H]1[C@H]2[C@H](C(=O)O)[C@H]2[C@](N)(C(=O)O)[C@@H]1OCc1ccc(Cl)c(Cl)c1 : > 94%

Continue with the compound presented below.
Kindly note the recorded Imax for N[C@]1(C(=O)O)[C@@H]2[C@@H](C(=O)O)[C@@H]2[C@@H](O)[C@H]1OCc1cccc(Cl)c1 , which is > 94%

* * *

molecular target: Metabotropic glutamate receptor 5 (Homo sapiens); assay: Agonist activity at recombinant human mGlu5 receptor expressed in hamster AV12 cells co-expressing human EAAT1/Galpha1s assessed as increase in Ca2+ flux by Fluo-3-AM dye based FLIPR assay
Sequence (P41594 whole entry): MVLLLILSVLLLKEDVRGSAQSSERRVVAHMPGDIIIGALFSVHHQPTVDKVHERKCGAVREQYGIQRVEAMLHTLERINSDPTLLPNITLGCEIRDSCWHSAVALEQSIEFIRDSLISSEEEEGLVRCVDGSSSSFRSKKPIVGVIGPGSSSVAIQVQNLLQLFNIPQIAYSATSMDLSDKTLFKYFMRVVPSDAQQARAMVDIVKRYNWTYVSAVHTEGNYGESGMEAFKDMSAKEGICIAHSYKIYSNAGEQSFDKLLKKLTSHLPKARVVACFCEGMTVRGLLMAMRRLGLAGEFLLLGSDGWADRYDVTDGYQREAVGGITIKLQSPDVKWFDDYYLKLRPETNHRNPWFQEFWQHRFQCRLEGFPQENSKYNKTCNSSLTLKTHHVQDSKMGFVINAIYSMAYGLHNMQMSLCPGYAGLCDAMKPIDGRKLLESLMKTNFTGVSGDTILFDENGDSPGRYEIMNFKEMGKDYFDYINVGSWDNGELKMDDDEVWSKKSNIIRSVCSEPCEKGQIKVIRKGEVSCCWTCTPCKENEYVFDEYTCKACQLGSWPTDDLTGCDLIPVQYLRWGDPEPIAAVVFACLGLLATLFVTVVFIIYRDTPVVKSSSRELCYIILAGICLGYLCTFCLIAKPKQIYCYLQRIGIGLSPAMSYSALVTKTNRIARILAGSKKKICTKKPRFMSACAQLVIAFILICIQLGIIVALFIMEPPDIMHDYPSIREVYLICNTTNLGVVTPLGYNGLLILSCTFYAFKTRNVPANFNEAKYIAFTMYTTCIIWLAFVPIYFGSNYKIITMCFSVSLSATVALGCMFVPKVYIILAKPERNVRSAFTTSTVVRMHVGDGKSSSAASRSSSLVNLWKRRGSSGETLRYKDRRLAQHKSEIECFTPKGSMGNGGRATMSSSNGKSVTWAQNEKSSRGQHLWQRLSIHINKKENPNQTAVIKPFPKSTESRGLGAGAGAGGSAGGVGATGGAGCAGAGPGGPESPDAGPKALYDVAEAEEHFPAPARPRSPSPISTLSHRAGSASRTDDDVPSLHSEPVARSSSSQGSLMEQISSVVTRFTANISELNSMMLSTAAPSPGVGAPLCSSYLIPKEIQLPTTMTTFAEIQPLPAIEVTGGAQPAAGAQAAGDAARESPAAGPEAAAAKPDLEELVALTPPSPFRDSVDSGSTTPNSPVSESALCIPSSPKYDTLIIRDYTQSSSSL
value-type: EC50

Sure, the documented EC50 for N[C@]1(C(=O)O)[C@@H]2[C@@H](C(=O)O)[C@@H]2[C@H](O)[C@H]1OCc1ccc(Cl)c(Cl)c1 is > 25 µM

* * *

test: Half life in rat at 1 mg/kg, iv; assay type: ADME, organism-based; conditions: in vivo
value-type: half-life (h)
Quick reminder: number only, in h, skip the unit.

Lookup result for N[C@]1(C(=O)O)[C@@H]2[C@@H](C(=O)O)[C@@H]2[C@H](O)[C@H]1OCc1ccc(Cl)c(Cl)c1 ; measured half-life: 4.61

* * *

experiment: Drug metabolism in monkey microsomes at 4 uM after 30 mins; assay type: ADME, Macaca mulatta, Microsome; settings: rhesus monkey, read-out: Drug metabolism
value-type: metabolised at 0.5 h, 4 µM

Recorded result, N[C@]1(C(=O)O)[C@@H]2[C@@H](C(=O)O)[C@@H]2[C@H](O)[C@H]1OCc1ccc(Cl)c(Cl)c1 , metabolised at 0.5 h, 4 µM: < 20%

* * *

test: Unbound fraction in monkey plasma at 1 uM; assay type: ADME, cell-free, Macaca mulatta; details: rhesus monkey
value-type: fraction unbound at 1 µM

N[C@]1(C(=O)O)[C@@H]2[C@@H](C(=O)O)[C@@H]2[C@H](O)[C@H]1OCc1ccc(Cl)c(Cl)c1 has a reported fraction unbound at 1 µM of > 0.4

* * *

experiment: Half life in rat at 5 mg/kg, po; format: ADME, organism-based; conditions: in vivo
value-type: half-life (min)
Your answer is read as min, so omit the unit and give the number.

GET /value?item= N[C@]1(C(=O)O)[C@@H]2[C@@H](C(=O)O)[C@@H]2[C@H](O)[C@H]1OCc1ccc(Cl)c(Cl)c1 &field=half-life returns 329

* * *

test: Cmax in rat at 10 mg/kg, ip; type: ADME, organism-based; set-up: dose 10 mg/kg, route intraperitoneal; conditions: in vivo
value-type: Cmax (µM)
Report only the number, with the unit µM understood.

Cmax measured on N[C@]1(C(=O)O)[C@@H]2[C@@H](C(=O)O)[C@@H]2[C@H](O)[C@H]1OCc1ccc(Cl)c(Cl)c1 = 48.1

* * *

test: Drug uptake in NIH Swiss Webster mouse brain at 1 mg/kg, ip at 30 mins; format: ADME, organism-based; details: read-out: Drug uptake
value-type: concentration at 0.5 h (nM)
Please state the figure in nM; there is no need to write the unit.

Notebook: N[C@]1(C(=O)O)[C@@H]2[C@@H](C(=O)O)[C@@H]2[C@H](O)[C@H]1OCc1ccc(Cl)c(Cl)c1 , concentration at 0.5 h read as 72

* * *

assay: Volume of distribution at steady state in rat at 1 mg/kg, iv; type: ADME, organism-based; conditions: in vivo, read-out: Vdss
value-type: Vd (L/kg)
Dear colleague, please return just the value in L/kg, with no unit written.

The molecule listed as N[C@]1(C(=O)O)[C@@H]2[C@@H](C(=O)O)[C@@H]2[C@H](O)[C@H]1OCc1ccc(Cl)c(Cl)c1 shows Vd equal to 0.589

* * *

experiment: Tmax in rat at 10 mg/kg, ip; assay type: ADME, organism-based; conditions: in vivo
value-type: Tmax (min)
// return numeric value only (unit: min, not printed)

// sample N[C@]1(C(=O)O)[C@@H]2[C@@H](C(=O)O)[C@@H]2[C@H](O)[C@H]1OCc1ccc(Cl)c(Cl)c1 , its Tmax was 22.8

* * *

molecular target: CYP2D6 (Homo sapiens, UniProt P10635); assay: Inhibition of human CYP2D6 at 10 uM; assay type: ADME
Sequence (P10635 whole entry): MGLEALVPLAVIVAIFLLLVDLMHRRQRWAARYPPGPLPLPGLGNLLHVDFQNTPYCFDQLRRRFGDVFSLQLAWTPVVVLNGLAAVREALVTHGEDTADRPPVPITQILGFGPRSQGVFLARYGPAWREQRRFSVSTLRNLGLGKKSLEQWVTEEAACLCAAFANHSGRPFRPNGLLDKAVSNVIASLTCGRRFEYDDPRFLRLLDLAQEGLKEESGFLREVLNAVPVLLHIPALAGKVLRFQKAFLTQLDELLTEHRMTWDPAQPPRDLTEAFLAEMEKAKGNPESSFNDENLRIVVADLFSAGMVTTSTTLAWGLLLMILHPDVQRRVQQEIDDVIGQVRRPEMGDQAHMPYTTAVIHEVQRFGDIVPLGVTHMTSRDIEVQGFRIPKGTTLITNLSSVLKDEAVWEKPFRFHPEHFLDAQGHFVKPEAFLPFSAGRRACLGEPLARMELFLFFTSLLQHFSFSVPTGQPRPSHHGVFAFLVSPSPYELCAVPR
value-type: inhibition at 10 µM

CYP2D6 (Homo sapiens, UniProt P10635) inhibition at 10 µM of N[C@]1(C(=O)O)[C@@H]2[C@@H](C(=O)O)[C@@H]2[C@H](O)[C@H]1OCc1ccc(Cl)c(Cl)c1 is < 5%

* * *

experiment: Aqueous solubility of compound at pH 7.4; type: physicochemical; conditions: aqueous medium
value-type: solubility (µg/mL)
Answer in µg/mL, number only, no unit symbol.

The molecule listed as N[C@]1(C(=O)O)[C@@H]2[C@@H](C(=O)O)[C@@H]2[C@H](O)[C@H]1OCc1ccc(Cl)c(Cl)c1 shows solubility equal to 778

* * *

biological target: Voltage-gated inwardly rectifying potassium channel KCNH2 (Homo sapiens, UniProt Q12809)
Sequence (Q12809 whole entry): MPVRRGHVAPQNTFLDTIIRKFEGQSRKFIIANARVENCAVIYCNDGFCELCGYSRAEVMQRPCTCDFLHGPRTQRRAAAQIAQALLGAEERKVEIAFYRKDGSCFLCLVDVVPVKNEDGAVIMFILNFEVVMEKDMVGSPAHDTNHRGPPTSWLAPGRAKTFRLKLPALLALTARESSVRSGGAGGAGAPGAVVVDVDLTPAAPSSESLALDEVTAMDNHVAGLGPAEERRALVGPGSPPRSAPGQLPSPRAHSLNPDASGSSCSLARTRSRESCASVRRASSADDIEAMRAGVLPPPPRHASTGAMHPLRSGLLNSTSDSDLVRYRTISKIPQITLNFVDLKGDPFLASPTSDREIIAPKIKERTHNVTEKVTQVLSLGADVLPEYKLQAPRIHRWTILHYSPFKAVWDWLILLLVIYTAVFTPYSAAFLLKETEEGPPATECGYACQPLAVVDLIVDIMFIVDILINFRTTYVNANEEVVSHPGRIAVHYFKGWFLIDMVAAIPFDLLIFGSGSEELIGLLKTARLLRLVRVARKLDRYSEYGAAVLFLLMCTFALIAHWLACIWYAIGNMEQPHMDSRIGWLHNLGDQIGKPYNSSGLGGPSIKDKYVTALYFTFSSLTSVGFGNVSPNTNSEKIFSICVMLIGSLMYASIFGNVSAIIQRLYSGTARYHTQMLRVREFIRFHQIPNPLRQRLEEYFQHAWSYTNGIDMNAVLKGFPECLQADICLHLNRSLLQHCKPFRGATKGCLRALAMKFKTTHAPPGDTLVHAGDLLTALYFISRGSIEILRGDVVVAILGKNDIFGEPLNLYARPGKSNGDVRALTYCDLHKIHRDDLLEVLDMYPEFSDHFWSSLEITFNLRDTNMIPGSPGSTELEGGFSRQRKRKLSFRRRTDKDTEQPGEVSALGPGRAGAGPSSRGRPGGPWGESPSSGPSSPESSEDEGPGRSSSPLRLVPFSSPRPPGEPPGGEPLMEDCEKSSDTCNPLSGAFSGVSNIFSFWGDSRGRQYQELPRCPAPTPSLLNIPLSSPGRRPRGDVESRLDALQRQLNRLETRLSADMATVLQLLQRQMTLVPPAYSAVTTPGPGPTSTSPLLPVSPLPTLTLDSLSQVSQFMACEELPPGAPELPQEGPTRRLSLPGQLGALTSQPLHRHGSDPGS
pKi: −log10 of the molar value.
value-type: pKi

pKi on Voltage-gated inwardly rectifying potassium channel KCNH2 (Homo sapiens, UniProt Q12809) for N[C@]1(C(=O)O)[C@@H]2[C@@H](C(=O)O)[C@@H]2[C@H](O)[C@H]1OCc1ccc(Cl)c(Cl)c1 is < 4.00

* * *

test: Tmax in rat at 5 mg/kg, po; type: ADME, organism-based; conditions: in vivo
value-type: Tmax (h)
A number alone suffices; assume h.

Please fill in: Tmax reported for N[C@]1(C(=O)O)[C@@H]2[C@@H](C(=O)O)[C@@H]2[C@H](O)[C@H]1OCc1ccc(Cl)c(Cl)c1 = 1.67

* * *

assay: Unbound fraction in rat plasma at 1 uM; format: ADME, cell-free
value-type: fraction unbound at 1 µM

Briefly, fraction unbound at 1 µM measured for N[C@]1(C(=O)O)[C@@H]2[C@@H](C(=O)O)[C@@H]2[C@H](O)[C@H]1OCc1ccc(Cl)c(Cl)c1 : > 0.4

* * *

test: Antidepressant activity in ip dosed NIH Swiss Webster mouse assessed as reduction in immobility time administered 30 mins prior to evaluation measured on the last 4 mins of the 6 mins observation time by forced swim test; type: functional, organism-based
value-type: ED60 (mg/kg)
Entry rule: numbers only, all in mg/kg.

// worked examples, ED60 included
ED60 reported for this compound Cn1ncnc1S[C@H]1[C@H]2[C@H](C(=O)O)[C@H]2[C@](N)(C(=O)O)[C@@H]1OCc1ccc(Cl)c(Cl)c1 : 7.3

# ED60 of N[C@]1(C(=O)O)[C@@H]2[C@@H](C(=O)O)[C@@H]2[C@H](O)[C@H]1OCc1ccc(Cl)c(Cl)c1 = 0.72

Looking up COC(=O)N[C@H]1[C@H]2[C@H](C(=O)O)[C@H]2[C@](N)(C(=O)O)[C@@H]1OCc1ccc(Cl)c(Cl)c1 , I found its ED60 recorded as 7.95

// ED60 lookup, compound = N[C@]1(C(=O)O)[C@@H]2[C@@H](C(=O)O)[C@@H]2[C@H](Sc2ncc[nH]2)[C@H]1OCc1ccc(Cl)c(Cl)c1 , result: 9.1

Noted for N[C@]1(C(=O)O)[C@@H]2[C@@H](C(=O)O)[C@@H]2[C@H](Sc2nc[nH]n2)[C@H]1OCc1ccc(Cl)c(Cl)c1 : its ED60 reads 2.08

Others:
The compound listed as CC(=O)N[C@H]1[C@H]2[C@H](C(=O)O)[C@H]2[C@](N)(C(=O)O)[C@@H]1OCc1ccc(Cl)c(Cl)c1 shows ED60 equal to 9.1

* * *

assay: Drug metabolism in dog microsomes at 4 uM after 30 mins; format: ADME, Canis lupus familiaris, Microsome; details: read-out: Drug metabolism
value-type: metabolised at 0.5 h, 4 µM

Recorded result, N[C@]1(C(=O)O)[C@@H]2[C@@H](C(=O)O)[C@@H]2[C@H](O)[C@H]1OCc1ccc(Cl)c(Cl)c1 , metabolised at 0.5 h, 4 µM: < 20%
